target: human recombinant 5-HT2C receptor (Homo sapiens); construct: expressed in transfected cells; host or cells: Jump-In HEK cells (membrane preparation); test: Test Example 2: 5-HT2C receptor binding inhibition test ([3H]-Mesulergine; non-specific ligand Serotonin HCl); details: human serotonin 5-HT2C receptor binding activity
Sequence (P28335 33-458): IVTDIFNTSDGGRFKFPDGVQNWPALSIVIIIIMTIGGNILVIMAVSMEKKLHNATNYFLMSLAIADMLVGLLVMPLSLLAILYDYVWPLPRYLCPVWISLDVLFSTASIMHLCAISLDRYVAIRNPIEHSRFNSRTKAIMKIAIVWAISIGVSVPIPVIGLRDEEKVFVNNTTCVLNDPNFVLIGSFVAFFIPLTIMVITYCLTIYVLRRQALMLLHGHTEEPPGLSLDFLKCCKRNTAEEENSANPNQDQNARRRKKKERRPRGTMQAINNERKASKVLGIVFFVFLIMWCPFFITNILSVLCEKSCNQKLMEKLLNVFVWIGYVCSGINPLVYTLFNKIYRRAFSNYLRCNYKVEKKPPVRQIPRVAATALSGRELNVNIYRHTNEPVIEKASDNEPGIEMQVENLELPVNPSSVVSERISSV
MEASUREMENT TYPE: Ki

Prompt: Please give the documented Ki of COCc1nc(C)c(-c2cc(Nc3ccc(C4CC(F)(F)C4)cn3)ncc2OCCO)c(C)n1 [Compound I-192]
Completion: 9.15 nM

Prompt: Please give the documented Ki of Cc1nc(OC2COC2)nc(C)c1-c1cc(Nc2ncc(C(F)(F)F)cc2Cl)ncc1OCCO [Compound I-220]
Completion: 5.91 nM

Prompt: Please give the documented Ki of Cc1nc(CO[C@@H]2CCOC2)nc(C)c1-c1cc(Nc2ncc(C(F)(F)F)cc2Cl)ncc1OCCO [Compound I-378]
Completion: 1.51 nM

Prompt: Please give the documented Ki of COCc1nc(C)c(-c2cc(Nc3ncc(-n4cc(C(F)F)cn4)cc3Cl)ncc2OCCO)c(C)n1 [Compound I-327]
Completion: 2.69 nM

Prompt: Please give the documented Ki of COCc1nc(C)c(-c2nc(Nc3ccc(-c4ccc(C(F)(F)F)nc4)cn3)c(F)cc2OCCO)c(C)n1 [Compound I-365]
Completion: 1.98 nM

Prompt: Please give the documented Ki of Cc1cnn(C)c1-c1cc(Nc2ncc(Cl)cc2F)c(F)cc1OCCO [Compound I-160]
Completion: 3.01 nM

Prompt: Please give the documented Ki of Cn1ncc(Br)c1-c1cc(Nc2ncc(Cl)cn2)c(Cl)cc1OCCO [Compound I-398]
Completion: 5.26 nM

Prompt: Please give the documented Ki of Cc1cnn(C)c1-c1cc(Nc2ncc(OC(F)(F)F)cc2Cl)ncc1OCCO [Compound I-183]
Completion: 1.22 nM

Prompt: Please give the documented Ki of Cc1nc(C)c(-c2nc(Nc3ccc(C(F)(F)F)cc3)c(F)cc2OCCO)c(C)n1 [Compound I-267]
Completion: 0.786 nM

Prompt: Please give the documented Ki of Cc1nc(C)c(-c2nc(Nc3ccc(-c4ccc(C(F)(F)F)nc4)cn3)c(F)cc2O[C@H](C)CO)c(C)n1 [Compound I-364]
Completion: 12.2 nM

Prompt: Please give the documented Ki of Cc1nc(C2CCC2)nc(C)c1-c1cc(Nc2ncc(C(F)(F)F)cc2Cl)ncc1OCCO [Compound I-208]
Completion: 1.67 nM

Prompt: Please give the documented Ki of CNC(=O)c1cnc(C)c(-c2cc(Nc3ncc(C(F)(F)F)cc3F)ncc2OCCO)c1 [Compound I-371]
Completion: 61.5 nM

Prompt: Please give the documented Ki of COCc1nc(C)c(-c2cc(Nc3ncc(-c4cccc(C#N)c4)cc3Cl)ncc2OCCO)c(C)n1 [Compound I-260]
Completion: 2.06 nM

Prompt: Please give the documented Ki of Cc1nc(C)c(-c2cc(Nc3ncc(C(F)(F)F)cc3Cl)ncc2OCCO)c(C)n1 [Compound I-390]
Completion: 3.91 nM

Prompt: Please give the documented Ki of Cn1ncc(Br)c1-c1nc(Nc2ccc(OC(F)F)cc2)ncc1OCCO [Compound I-353]
Completion: 0.975 nM

Prompt: Please give the documented Ki of Cc1nc(OCC2CCCO2)nc(C)c1-c1cc(Nc2ncc(C(F)(F)F)cc2Cl)ncc1OCCO (racemic) [Compound I-214]
Completion: 8.87 nM

Prompt: Please give the documented Ki of Cn1ncc(Br)c1-c1cc(Nc2ccc(OC(C)(F)F)cn2)ncc1OCCO [Compound I-301]
Completion: 1.38 nM

Prompt: Please give the documented Ki of COCc1nc(C)c(-c2cc(Nc3ncc(-c4ccc(F)cc4)cc3Cl)ncc2OCCO)c(C)n1 [Compound I-230]
Completion: 0.372 nM

Prompt: Please give the documented Ki of Cn1ncc(Br)c1-c1nc(Nc2ccc(Cl)cn2)c(F)cc1OCCO [Compound I-278]
Completion: 3.56 nM

Prompt: Please give the documented Ki of Cn1ncc(Br)c1-c1cc(Nc2ncc(F)cn2)c(F)cc1OCCO [Compound I-165]
Completion: 9.78 nM

Prompt: Please give the documented Ki of Cc1nc(CO[C@H]2CCOC2)nc(C)c1-c1cc(Nc2ncc(C(F)(F)F)cc2Cl)ncc1OCCO [Compound I-377]
Completion: 4.66 nM

Prompt: Please give the documented Ki of Cn1ncc(Br)c1-c1cc(Nc2ncc(C(F)(F)F)cn2)c(Cl)cc1OCCO [Compound I-397]
Completion: 1.8 nM

Prompt: Please give the documented Ki of Cc1cc(OC(F)F)cnc1Nc1cc(-c2c(Br)cnn2C)c(OCCO)cn1 [Compound I-177]
Completion: 0.63 nM

Prompt: Please give the documented Ki of Cn1ncc(Br)c1-c1cc(Nc2nc3ccc(F)cc3[nH]2)c(F)cc1OCCO [Compound I-406]
Completion: 2.48 nM

Prompt: Please give the documented Ki of Cc1nc(N2CCCC2)nc(C)c1-c1cc(Nc2ncc(C(F)(F)F)cc2Cl)ncc1OCCO [Compound I-209]
Completion: 5.63 nM

Prompt: Please give the documented Ki of Cn1ncc(Br)c1-c1nc(Nc2ccc(OC(F)(F)F)cn2)c(F)cc1OCCO [Compound I-280]
Completion: 1.58 nM

Prompt: Please give the documented Ki of Cn1ncc(Cl)c1-c1cc(Nc2ncc(OCC(F)(F)F)cc2F)ncc1OCCO [Compound I-322]
Completion: 1.3 nM

Prompt: Please give the documented Ki of Cn1ncc(F)c1-c1cc(Nc2ccc(C(F)(F)F)cn2)c(F)cc1OCCO [Compound I-170]
Completion: 5.45 nM

Prompt: Please give the documented Ki of Cc1cc(OC(F)(F)F)cnc1Nc1cc(-c2c(C)cnn2C)c(OCCO)cn1 [Compound I-180]
Completion: 1.86 nM

Prompt: Please give the documented Ki of Cn1ncc(Br)c1-c1cc(Nc2ccc(OC(F)F)cn2)ncc1OCCO [Compound I-288]
Completion: 0.78 nM

Prompt: Please give the documented Ki of Cc1nc(C)c(-c2cc(Nc3ccc(-c4ccc(C(F)(F)F)cn4)cn3)ncc2OCCO)c(C)n1 [Compound I-314]
Completion: 3.68 nM

Prompt: Please give the documented Ki of Cc1cnn(C)c1-c1cc(Nc2ncc(OC(F)(F)F)cc2F)ncc1OCCO [Compound I-292]
Completion: 2.4 nM

* * *

target: human recombinant 5-HT2A receptor (Homo sapiens); construct: expressed in transfected cells; host or cells: Jump-In HEK cells (membrane preparation); experiment: Test Example 1-2: 5-HT2A receptor binding inhibition test ([3H]-Ketanserin; non-specific ligand Ketanserin); details: [3H]-Ketanserin; non-specific binding with 500 µmol/L Ketanserin; room temperature (25°C), 1.5 hours; read-out: h 5-HT2A Ki
Sequence (P28223 whole entry): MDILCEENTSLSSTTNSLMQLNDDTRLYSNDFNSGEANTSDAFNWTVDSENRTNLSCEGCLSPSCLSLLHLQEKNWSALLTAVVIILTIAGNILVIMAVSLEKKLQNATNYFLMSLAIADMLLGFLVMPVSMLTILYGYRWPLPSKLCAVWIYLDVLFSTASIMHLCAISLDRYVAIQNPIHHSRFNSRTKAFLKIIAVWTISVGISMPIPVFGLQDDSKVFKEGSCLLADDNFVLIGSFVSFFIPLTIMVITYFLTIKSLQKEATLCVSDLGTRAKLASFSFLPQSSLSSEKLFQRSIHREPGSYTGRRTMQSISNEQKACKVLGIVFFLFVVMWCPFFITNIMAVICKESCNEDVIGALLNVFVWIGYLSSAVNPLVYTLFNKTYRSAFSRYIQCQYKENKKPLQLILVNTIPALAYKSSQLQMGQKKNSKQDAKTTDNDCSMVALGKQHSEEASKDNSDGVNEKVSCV
MEASUREMENT TYPE: pKi
Quick note: pKi values are minus log10 of concentrations in mol/L.

Prompt: Report value only: pKi, human recombinant 5-HT2A receptor (Homo sapiens), Cc1nc(C2COC2)nc(C)c1-c1cc(Nc2ncc(C(F)(F)F)cc2Cl)ncc1OCCO
Completion: 8.65

Prompt: Report value only: pKi, human recombinant 5-HT2A receptor (Homo sapiens), O=C1NCCc2c1cccc2-c1cc(Nc2ncc(C(F)(F)F)cc2F)ncc1OCCO
Completion: 8.92

Prompt: Report value only: pKi, human recombinant 5-HT2A receptor (Homo sapiens), Cn1ncc(Br)c1-c1cc(Nc2ccc(C(F)(F)F)cn2)cnc1OCCO
Completion: 9.69

Prompt: Report value only: pKi, human recombinant 5-HT2A receptor (Homo sapiens), COCCOc1nc(C)c(-c2cc(Nc3ncc(C(F)(F)F)cc3Cl)ncc2OCCO)c(C)n1
Completion: 8.90

Prompt: Report value only: pKi, human recombinant 5-HT2A receptor (Homo sapiens), Cn1ncc(Br)c1-c1cc(Nc2ccc(C3CCC3)cn2)ccc1OCCO
Completion: 9.55

Prompt: Report value only: pKi, human recombinant 5-HT2A receptor (Homo sapiens), Cn1ncc(Br)c1-c1cc(Nc2ncc(Br)cc2F)ccc1OCCO
Completion: 9.73

Prompt: Report value only: pKi, human recombinant 5-HT2A receptor (Homo sapiens), Cc1nc(OCC2CCCO2)nc(C)c1-c1cc(Nc2ncc(C(F)(F)F)cc2Cl)ncc1OCCO (racemic)
Completion: 8.78

Prompt: Report value only: pKi, human recombinant 5-HT2A receptor (Homo sapiens), Cc1nn(C)c(C)c1-c1cc(Nc2ncc(C(F)(F)F)cc2F)ccc1OCCO
Completion: 9.37

* * *

biological target: human recombinant 5-HT2A receptor (Homo sapiens); construct: expressed in transfected cells; host or cells: Jump-In HEK cells (membrane preparation); assay: Test Example 1-2: 5-HT2A receptor binding inhibition test ([3H]-Ketanserin; non-specific ligand Ketanserin); conditions: [3H]-Ketanserin; non-specific binding with 500 µmol/L Ketanserin; room temperature (25°C), 1.5 hours; read-out: h 5-HT2A Ki
MEASUREMENT TYPE: log10 Ki (log10 of the value in nM)
Hello, just confirming the data are log10 of Ki with units of nM.

Prompt: Please give the documented log10 Ki of COCc1nc(C)c(-c2cc(Nc3ncc(-c4ccc(C#N)nc4)cc3Cl)ncc2OCCO)c(C)n1
Completion: 0.57

Prompt: Please give the documented log10 Ki of COc1cnc(Nc2cc(-c3c(Cl)cnn3C)c(OCCO)cc2F)nc1
Completion: -0.13

Prompt: Please give the documented log10 Ki of Cn1ncc(Br)c1-c1cc(Nc2ncc(Cl)cc2F)ncc1OCCO
Completion: -0.50

Prompt: Please give the documented log10 Ki of Cc1cnn(C)c1-c1cc(Nc2ncc(Cl)cc2F)cnc1OCCO
Completion: -0.53

Prompt: Please give the documented log10 Ki of Cn1ncc(F)c1-c1cc(Nc2ncc(C(F)(F)F)cc2F)c(F)cc1OCCO
Completion: -0.69

Prompt: Please give the documented log10 Ki of Cn1ncc(Br)c1-c1cc(Nc2nc3ccc(F)cc3s2)c(F)cc1OCCO
Completion: -0.56

Prompt: Please give the documented log10 Ki of Cc1cc(C)c(-c2cc(Nc3ncc(C(F)(F)F)cc3F)ccc2OCCO)c(C)c1
Completion: -0.14

Prompt: Please give the documented log10 Ki of Cn1ncc(Br)c1-c1cc(Nc2nc3ccccc3s2)cnc1OCCO
Completion: -0.58
